# run_description: yeast display, Sf9 membrane polyspecificity reagent, FACS + sequencing; frameworks hold sequencing errors
assay_endpoint: polyreactivity (PSR sort gate)

Illustrative cases are given below, each with its answer.
[
  {
    "item_sequence": "QDQLVDSGGGLVQAGGSLRLSCAASGSIFWTYAMGWYRQAPGKERELVATITYSDGNTYYADSVKGRFTISRDNAMNTVYLQMNSLKPEDTAVYYCNADGIYASISGYRYDYWGQGTQVTVSS",
    "assay_endpoint": "polyreactivity (PSR sort gate)",
    "value_reported": "low polyreactivity"
  },
  {
    "item_sequence": "QVQLEESGGGIVQAGGSLRLSCASSGFIFKAYAMVWSRQAPGKERDLVAVITGSSGRTYADSVKGRFTISRDNAKNTVYLQMNSLKPEDTAVYYCAADLRKSKYRYWRRYDYWGQGTQVTVSS",
    "assay_endpoint": "polyreactivity (PSR sort gate)",
    "value_reported": "high polyreactivity"
  },
  {
    "item_sequence": "QVQLGESGGGLVQAGGSLRLSCAASGNIFYANAMGWSRQAPGTERELLAAISGSGGSTYADSVKGRFTISRDNAKNTVYLQMNSLKPVDTAVYYCNASVLDAIFYKSVGYDYWGQGTQVTVSS",
    "assay_endpoint": "polyreactivity (PSR sort gate)",
    "value_reported": "low polyreactivity"
  },
  {
    "item_sequence": "QVQLVESGGGLVQAGGSLRLSCAASGIIFADYDMGWYRQAPGKERELVAAITGSGGSTYYADSVKGRFTISRDNEKKTVYLQMNSLKPEDTAVYYCAADYAYSYGYHYGYWGQGTQVTVSS",
    "assay_endpoint": "polyreactivity (PSR sort gate)",
    "value_reported": "high polyreactivity"
  }
]

Task: Field request: polyreactivity (PSR sort gate) | item: QVQLVESGGGLVQAGGSLRLSCAASGSIFLYYAMGWYRPAPGKDRELVAAIRRGGNTNYADSVKGRFTISRDNAKNTVYLQMNSLKPVDTAVYYCAAAQYSRYSRVPNYYAGTYYYWGQGTQVTVSS
Result: low polyreactivity

----------
# run_description: yeast display, Sf9 membrane polyspecificity reagent, FACS + sequencing; frameworks hold sequencing errors
assay_endpoint: polyreactivity (PSR sort gate)

[
  {
    "item_sequence": "QVQLVESVGGLVQAGGSLRLSCAASGSTFRYYAMGWYRQAPGKERELVAAITGSGGSTYYADSVKGRFTISRDNAKNTVYLQMNSLKPEDTAVYYCAAYCSRSILRYDSWGQGTQVTVSS",
    "value_reported": "high polyreactivity"
  },
  {
    "item_sequence": "QVQLVESGGGLVQAGGSLRLSCAASGSIFTRYAMGWYRQAPGKERELVAAISYRGDRTYYADSVKGRFTISRDNAKNTVYLQMNSLKPEDTAVYYCAATVQYSPIYDYWGQGTQVTVSS",
    "value_reported": "high polyreactivity"
  }
]

----------
# run_description: yeast display, Sf9 membrane polyspecificity reagent, FACS + sequencing; frameworks hold sequencing errors
assay_endpoint: polyreactivity (PSR sort gate)

Illustrative cases are given below, each with its answer.
[
  {
    "item_sequence": "QVQLVESGGGLVQAGDSLRLSCAASGIILLSYAMGWYRQAPGKERELVAAITSGGGTNYADSVKGRFTISRDNAKNTVYLQMNSLKPEDTAVYYCAVGAYAGLYYYWGQGTQVTVSS",
    "assay_endpoint": "polyreactivity (PSR sort gate)",
    "value_reported": "low polyreactivity"
  },
  {
    "item_sequence": "QVQLVESRGGLVQAGGSLPLSCAASGSIFDRYAMGWYRQAPGKERELVAAISRSGGSTYYADSVKGRFTISRDNAKNTVYLQMNSLKPEDTAVYYCAARARSLYDYWGQGTQVTVSS",
    "assay_endpoint": "polyreactivity (PSR sort gate)",
    "value_reported": "high polyreactivity"
  },
  {
    "item_sequence": "QVQLVESGGGLVQAGGSLRLSCAASGRPFPFNAMGWSRQAPGKDRELVAAISGRGGSTYYADSVKGRFTISRDNATNTGSLQRNSQKPEDTAVDYCAARLPWSYYRTQGYNSWGQGTQGTVSS",
    "assay_endpoint": "polyreactivity (PSR sort gate)",
    "value_reported": "high polyreactivity"
  },
  {
    "item_sequence": "QVQLVESGGGLVQAGGSLRLSCAASGIIFYVNAMGWYRQAPGKERELVAAITFGGDSTYYADSVKGRFTISRDNAKNTVYLQMNSLKPEDTAVYYCAADYVALYYWYDYWGQGTQVTVSS",
    "assay_endpoint": "polyreactivity (PSR sort gate)",
    "value_reported": "low polyreactivity"
  },
  {
    "item_sequence": "QVQLVESGGGLVQAGGSLRLSCAASGYIFPTNAMGWYRQAPGKERELVAVITSGGSTYYADSVKGRFTISRDNAKNTVYLQMNSLKPEDNAVYYCAARYPGRYGIYRVLYGYWGQGTQVTVSS",
    "assay_endpoint": "polyreactivity (PSR sort gate)",
    "value_reported": "high polyreactivity"
  }
]

Quick one: give me polyreactivity (PSR sort gate) for each item below, same order please.
1. QVQLVESGGGLVQAGGSLRLSCAASGRIFYYNDMGWYRQAPGKERELVAAITWTDDGTYYADSVKGRFTISRDYAKNTVYLQMNSLKPEDTAVYYFAAETFYGFEYWGQGTQVTLSS
2. QVQLVESGGGLVQAGGSLRLSCAASGSTFWDNAMGWYRQAPGKERELVAAITAIGGTTYYADSVKGRFTISRDNAKNTVYLQMNSLKPEDTAVYYCAADWTTYGFSYFSIYYYWGQGTQVTVSS
3. QVQLVDSGGGLVQAGGSLRLSCAASGIIFVENAMGWYRQAPGKEREMVAAISWDGGSTYYADSVKGRFTISRDNAKNTVYLQMNSLKPEDTAVYYCAADLTISYSQEYYYWGQGTQVTVSS
4. QVQLVESGGGLVQAGGSLRLSCAASGSIFSHNAMGWYRQAPGKERELVAAITGIVGSTYYADSVKGRFTISRDTAKNTVYLQMNSLNPEDTAVYYCAADNPVPEGSRTFEYWGQGTQVTVSS
5. QDQLVESGVGLVQAGGSHRLSCAASGSTFYRYAMRWYRQAHGKERELVATITTGGSSTYYADSVKGRFTISRDNAKNTVYLQMNSLKPEDTAVYYCAKVYTYSGVNLRRISTPYGYWGQGTQVTVSS
6. QVQLVESGGGLVQAGGSLRLSCAASGSIFFYYAMGWYRPAPGKERELVAAITSGGTTNYADSVNGRFTISRDNAKNTVYLQMNSLKPEDTAVYYCAVAGPRYAFFEYDYWGQGTQVTVSS

Result:
low polyreactivity
low polyreactivity
low polyreactivity
low polyreactivity
high polyreactivity
low polyreactivity

----------
# run_description: yeast display, Sf9 membrane polyspecificity reagent, FACS + sequencing; frameworks hold sequencing errors
assay_endpoint: polyreactivity (PSR sort gate)

Illustrative cases are given below, each with its answer.
[
  {
    "item_sequence": "QVQLVESGGGLVQAGGSLRLSCAASGSTFVYYVMGWYRQAPGKQRELVAAISTSGGSTYYADSVKGRFTISRDNAKKTVYLQMNSLKPEDTAVYYCAARVYYKYDYWGQGTQVTVSS",
    "polyreactivity (PSR sort gate)": "low polyreactivity"
  },
  {
    "item_sequence": "QVQHVESGGGLVQAGGSLRLSCAASGFTFGVNAMGWYRQAPGKERELVAVITSGGNTYYADSVKGRYTISRDNAKNTVYLQMNSLKPEDTAVYYCAADLSYTSYATRYQGDYWGQGTQVTVSS",
    "polyreactivity (PSR sort gate)": "low polyreactivity"
  },
  {
    "item_sequence": "QVQLVESVGGLVQAGGSLRLSCAASGSTFRPYAMGWSRQAPGKERELVAAITGSGGSTYYADSVKGRFTISRDNAKNTVYLQMNSLKPEDTAVYYCNAVSTWRYYYWGQGTQVTVSS",
    "polyreactivity (PSR sort gate)": "high polyreactivity"
  },
  {
    "item_sequence": "QVQLEESGGVLVQAGGSLRLSCAASGLTLYRNAMGWYRQAPGKERELVATINFSGGSTYYADSVKGRFTISRDNAKNTVYLQMNSLKPEDTAVYYCNARGYWHYSPTKFDYWGQGTQVTVSS",
    "polyreactivity (PSR sort gate)": "low polyreactivity"
  }
]

Quick one: give me polyreactivity (PSR sort gate) for each item below, same order please.
1. QVQLVESGGGLVQAGGSLRLSCAASGSIFFNYAMGWYRQAPGKERELVAAISSNGGRTYYADSVKGRFTISRDNAKNTVYLQMNSLKPEDTAVYYCAARVYDYPRFGYWGQGTQVTVSS
2. QVQLQESGGGLVQAGGSLRLSCAASGTISYGSVMGWYRQAPGKERELDAGIGYGSTTNYADSVKGRFTISRDNAKNTVYLQMNSLKPDDTAVYYCARDLYYVYSFAPYRYEYWGHGTQVTVSS
3. QVQLVESGGGLVQAGGSLRLSCAASGRTFISNVMGWYRQAPGKERELVAAIRSSGRTYYADSVKGRFTISRDNAKNTVYFQMNSLKPEDTAVYYCAAPGGLLGSGYWGQGTQVTVSS
4. QVHLVESGGGLVQAGGSLRLSCAASGSTFFYAMGWYRQAPRKERELVAAISWIDSLTYYADSVKGRFTISRDNEKITVYLQMNILKAEDTAFYYCAAEGQNEGYDYWGQGSQVTVSS
5. QVQLVESGGGLVQAGGSLRLSCAASGRTFGRNAMGWYRQAPGKERELVAAISSSGGRTYYADSVKGRFTISRDNAKNTVYLQMNSLKPEDTAVYYCNALTYYRDYWGQGTQVTVSS

Result:
1: high polyreactivity; 2: low polyreactivity; 3: low polyreactivity; 4: high polyreactivity; 5: high polyreactivity
